Entries annotated with measured Relative susceptibility
# TARGET ENTITY: Dipeptidase 1 (Homo sapiens) (UniProt P16444)
# Sequence (P16444 whole entry): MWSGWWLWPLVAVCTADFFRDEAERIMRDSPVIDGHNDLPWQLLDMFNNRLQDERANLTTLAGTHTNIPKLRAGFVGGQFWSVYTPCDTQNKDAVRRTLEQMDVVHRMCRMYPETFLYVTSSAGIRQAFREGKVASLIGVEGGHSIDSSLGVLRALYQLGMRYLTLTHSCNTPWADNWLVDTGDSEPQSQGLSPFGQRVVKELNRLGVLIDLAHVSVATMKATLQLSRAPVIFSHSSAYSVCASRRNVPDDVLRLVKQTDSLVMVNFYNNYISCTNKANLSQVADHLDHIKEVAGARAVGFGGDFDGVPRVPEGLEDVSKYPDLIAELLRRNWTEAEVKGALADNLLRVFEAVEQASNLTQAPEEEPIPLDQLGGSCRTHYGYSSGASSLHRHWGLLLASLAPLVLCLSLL
# EXPERIMENTAL DETAILS: Susceptibility to mammalian dehydropeptidase DHP-1 relative to thienamycin
When you answer, write just the number.

In the examples that follow, each entry is paired with its recorded Relative susceptibility.
O=C(O)C1=C(c2ccccc2)CC2CC(=O)N12 (configuration not stated) : 0.35
C[C@@H]1C(c2cccnc2)=C(C(=O)[O-])N2C(=O)[C@H]([C@@H](C)O)[C@@H]12.[K+] : 0.1
C[C@@H](O)[C@H]1C(=O)N2C(C(=O)O)=C(c3ccc(CN)cc3)[C@H](C)[C@H]12 : 0.07
C[C@@H](O)[C@H]1C(=O)N2C(C(=O)[O-])=C(c3ccccc3)C[C@H]12.[K+] : 0.2

Form field Relative susceptibility, entry C[C@@H](O)[C@H]1C(=O)N2C(C(=O)[O-])=C(c3ccc(CO)cc3)C[C@H]12.[K+] : 0.28

Form field Relative susceptibility, entry C[C@@H](O)[C@H]1C(=O)N2C(C(=O)[O-])=C(c3cccnc3)[C@H](C)[C@H]12.[K+] : 0.7

Form field Relative susceptibility, entry C[C@@H](O)[C@H]1C(=O)N2C(C(=O)[O-])=C(c3ccc(CO)cc3)[C@H](C)[C@H]12.[K+] : 0.22

---

# System: Klebsiella sp.
# EXPERIMENTAL DETAILS: Antibiotic activity was determined against Klebsiella species (5)
# Assay type: functional
ATTRIBUTE MEASURED: log10 MIC (log10 of the value in µg/mL)
log10 MIC, µg/mL

C[C@@H](O)[C@H]1C(=O)N2C(C(=O)O)=C(c3ccc(CN)cc3)[C@H](C)[C@H]12 : 0.23

// log10 MIC (Klebsiella sp.) for C[C@@H](O)[C@H]1C(=O)N2C(C(=O)[O-])=C(c3ccc(CO)cc3)[C@H](C)[C@H]12.[K+] = -0.15

// log10 MIC (Klebsiella sp.) for O=C(O)C1=C(c2ccccc2)CC2CC(=O)N12 (configuration not stated) = -1.40

---

Entries annotated with measured MIC
# System: Serratia
# EXPERIMENTAL DETAILS: Antibiotic activity was determined against Serratia species (2)
# Format: functional
A number alone suffices; assume µg/mL.

In the examples that follow, each entry is paired with its recorded MIC.
C[C@@H](O)[C@H]1C(=O)N2C(C(=O)[O-])=C(c3cccnc3)[C@H](C)[C@H]12.[K+] : 13
C[C@@H](O)[C@H]1C(=O)N2C(C(=O)[O-])=C(c3cccnc3)C[C@H]12.[K+] : 28
C[C@@H](O)[C@H]1C(=O)N2C(C(=O)O)=C(c3ccc(CN)nc3)C[C@H]12 : 5.3

Here is another compound to look at.
Form field MIC, entry O=C(O)C1=C(c2ccccc2)CC2CC(=O)N12 (centres undefined) : 0.01

---

# System: Klebsiella sp.
# EXPERIMENTAL DETAILS: Antibiotic activity was determined against Klebsiella species (5)
# Type: functional
ATTRIBUTE MEASURED: MIC (µg/mL)
A number alone suffices; assume µg/mL.

In the examples that follow, each entry is paired with its recorded MIC.
C[C@@H](O)[C@H]1C(=O)N2C(C(=O)[O-])=C(c3cccnc3)C[C@H]12.[K+] : 7
CC(O)[C@H]1C(=O)N2C(C(=O)O)=C(c3ccc(CN)cc3)C[C@H]12 (some centres undefined) : 3.2
C[C@@H]1C(c2cccnc2)=C(C(=O)[O-])N2C(=O)[C@H]([C@@H](C)O)[C@@H]12.[K+] : 2.5

Here is another compound to look at.
Form field MIC, entry C[C@@H](O)[C@H]1C(=O)N2C(C(=O)[O-])=C(c3cccnc3)[C@H](C)[C@H]12.[K+] : 7
